The reported numbers originate from patent US20120083522A1.

Documented % inhibition of Factor XI mRNA in liver relative to the PBS control across a set of substances
System: Factor XI mRNA
Experiment: Cynomolgus monkeys, 25 mg/kg: liver Factor XI RNA analysis (Example 30)
Assay type: in vivo
Conditions: 25 mg/kg s.c.; day 55; liver
Method: Groups, each consisting of two male and two female monkeys, were injected subcutaneously with 25 mg/kg of ISIS 416850, ISIS 449709, ISIS 445522, ISIS 449710, ISIS 449707, ISIS 449711, ISIS 449708, 416858 and ISIS 445531. […] Body weights were taken 14 days and 7 days before the start of treatment and were then measured weekly throughout the treatment period. […]
In the oligonucleotide strings, read from the 5' end, every base follows the letter of its sugar. An asterisk marks phosphorothioate; unmarked linkages are phosphodiester. Other units and linkages are bracketed, terminal groups are in braces. A string of capitals states the bases alone. e = 2'-O-(2-methoxyethyl) (MOE); [5mC] = 5-methylcytosine; d = 2'-deoxy (DNA)
Property Name: % inhibition of Factor XI mRNA in liver relative to the PBS control (%)

# Substance, Reading Unit, Measured Number
records = [
    ("449710 (antisense e[5mC]*eA*e[5mC]*dA*dG*dT*dT*dT*d[5mC]*dT*dG*dG*d[5mC]*eA*eG*eG) [compound 449710]", "%", 52),
    ("416858 (antisense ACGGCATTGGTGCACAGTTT; 5-10-5 gapmer, wing sugar chemistry not given here, further chemistry not given here) [compound 416858]", "%", 89),
    ("445531 (antisense eG*eG*e[5mC]*eA*eT*dT*dG*dG*dT*dG*d[5mC]*dA*d[5mC]*eA*eG*eT*eT*eT) [compound 445531]", "%", 66),
    ("449709 (antisense eG*e[5mC]*eA*e[5mC]*dA*dG*dT*dT*dT*d[5mC]*dT*dG*dG*d[5mC]*eA*eG*eG*e[5mC]) [compound 449709]", "%", 69),
    ("416850 (antisense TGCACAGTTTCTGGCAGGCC; 5-10-5 gapmer, wing sugar chemistry not given here, further chemistry not given here) [compound 416850]", "%", 68),
]
